test: pKa by UV-vis spectrophotometric titrations; assay type: physicochemical; settings: 30% (v/v) DMSO/H2O solution, I = 0.1 M (KCl), 25 °C, read-out: pKa (HL)
Measurement label: pKa

CN(C)C(=S)NN=C1CCCc2cccnc21 (mixture of isomers): 12.1
S=C(N/N=C1\CCCc2cccnc21)N1CCN(c2ccccn2)CC1: 11
CN(C(=S)N/N=C1\CCCc2cccnc21)C1CCCCC1: 12.4
NC(=S)N/N=C1\CCCc2cccnc21: 12.2

---

assay: Copper(II) complex formation, UV-vis titrations and EDTA competition; assay type: physicochemical; settings: conditional stability constant, EDTA competition at pH = 5.90
Measurement label: logβ5.9′ [CuL]^+

CN(C(=S)N/N=C1\CCCc2cccnc21)C1CCCCC1: 12.56
CN(C)C(=S)NN=C1CCCc2cccnc21 (mixture of isomers): 12.23
S=C(N/N=C1\CCCc2cccnc21)N1CCN(c2ccccn2)CC1: 13.06
NC(=S)N/N=C1\CCCc2cccnc21: 10.59

---

# reported IC50; entries follow
system: GLC-4/adr cells (ABCC1-overexpressing); experiment: MTT viability assay, 72 h; type: cell-based
Use nM as the unit, but write only the number.

CN(C(=S)N/N=C1\CCCc2cccnc21)C1CCCCC1 [COTI-NMeCy]: 540

Request the reported IC50 associated with CN(C)C(=S)NN=C1CCCc2cccnc21 (mixture of isomers) [COTI-NMe2] 60

---

assay: Cyclic voltammetry of copper(II)–ligand (1:1) systems; format: physicochemical; conditions: cL = cCu(II) = 1 mM, pH 7.40, 25 °C, 90% (v/v) DMSO/H2O, 0.01 V/s scan rate
Measurement label: E′ vs. NHE, copper(II)–ligand (1:1) systems (V)

S=C(N/N=C1\CCCc2cccnc21)N1CCN(c2ccccn2)CC1 [COTI-2]: -0.19
NC(=S)N/N=C1\CCCc2cccnc21 [COTI-NH2]: -0.17
NC(=S)NN=Cc1ncccc1N [Triapine]: -0.13
CN(C(=S)N/N=C1\CCCc2cccnc21)C1CCCCC1 [COTI-NMeCy]: -0.22
CN(C)C(=S)NN=C1CCCc2cccnc21 (mixture of isomers) [COTI-NMe2]: -0.24

---

assay: Copper(II) complex formation, UV-vis titrations and EDTA competition; assay type: physicochemical; conditions: β = β’ × αH, [H+] = 10^–5.90 M
Measurement label: logβ [CuL]^+

CN(C)C(=S)NN=C1CCCc2cccnc21 (mixture of isomers): 18.42
CN(C(=S)N/N=C1\CCCc2cccnc21)C1CCCCC1: 19.08
S=C(N/N=C1\CCCc2cccnc21)N1CCN(c2ccccn2)CC1: 18.19
NC(=S)N/N=C1\CCCc2cccnc21: 16.92

---

test: Thermodynamic solubility in water at pH 7.4 (UV-vis); type: physicochemical; conditions: water at pH 7.4 (20 mM HEPES buffer), aqueous buffer, thermodynamic from solid, water pH 7.4 (20 mM HEPES), 25 °C, read-out: S (meas.)
Measurement label: solubility thermodynamic (µM)

[A] S=C(N/N=C1\CCCc2cccnc21)N1CCN(c2ccccn2)CC1 [COTI-2]
[B] NC(=S)N/N=C1\CCCc2cccnc21 [COTI-NH2]
[C] CN(C)C(=S)NN=C1CCCc2cccnc21 (mixture of isomers) [COTI-NMe2]
[D] CN(C(=S)N/N=C1\CCCc2cccnc21)C1CCCCC1 [COTI-NMeCy]
Arrange these 4 compounds in increasing order of solubility thermodynamic. Output the labels ranked as instructed. A, D, C, B

---

experiment: Iron(III) complex formation, UV-vis spectrophotometric titrations; type: physicochemical; conditions: –log[free Fe(III)] calculated at cFe = 1 μM, cL = 10 μM, pH = 7.40
Measurement label: pFe(III)

NC(=S)N/N=C1\CCCc2cccnc21: 18.5
CN(C(=S)N/N=C1\CCCc2cccnc21)C1CCCCC1: 18.0
CN(C)C(=S)NN=C1CCCc2cccnc21 (mixture of isomers): 19.2
S=C(N/N=C1\CCCc2cccnc21)N1CCN(c2ccccn2)CC1: 18.6

---

experiment: Iron(III) complex formation, UV-vis spectrophotometric titrations; assay type: physicochemical; details: T = 25.0 °C, I = 0.10 M (KCl), 30% (v/v) DMSO/H2O
Measurement label: logβ [Fe(III)L2]^+

CN(C)C(=S)NN=C1CCCc2cccnc21 (mixture of isomers) [COTI-NMe2]: 32.77
S=C(N/N=C1\CCCc2cccnc21)N1CCN(c2ccccn2)CC1 [COTI-2]: 29.98
CN(C(=S)N/N=C1\CCCc2cccnc21)C1CCCCC1 [COTI-NMeCy]: 32.20
NC(=S)N/N=C1\CCCc2cccnc21 [COTI-NH2]: 32.29

---

assay: Distribution coefficient, shake-flask n-octanol/buffer pH 7.4; assay type: physicochemical; conditions: n-octanol/buffered aqueous solution; n-octanol/water, pH 7.4, 25 °C; read-out: log D7.4 (meas.)
Measurement label: logD
Give the figure only, with no unit attached.

Item NC(=S)N/N=C1\CCCc2cccnc21 [COTI-NH2] has what recorded logD? 1.64

---

experiment: Iron(II) complex formation, UV-vis spectrophotometric titrations (anaerobic); type: physicochemical; details: T = 25.0 °C, I = 0.10 M (KCl), 30% (v/v) DMSO/H2O
Measurement label: logβ [Fe(II)L2]

CN(C)C(=S)NN=C1CCCc2cccnc21 (mixture of isomers): 31.33
CN(C(=S)N/N=C1\CCCc2cccnc21)C1CCCCC1: 31.04
NC(=S)N/N=C1\CCCc2cccnc21: 31.21
S=C(N/N=C1\CCCc2cccnc21)N1CCN(c2ccccn2)CC1: 30.63

---

experiment: Zinc(II) complex formation, UV-vis spectrophotometric titrations; format: physicochemical; settings: T = 25.0 °C, I = 0.10 M (KCl), 30% (v/v) DMSO/H2O
Measurement label: logβ [ZnL]^+

S=C(N/N=C1\CCCc2cccnc21)N1CCN(c2ccccn2)CC1 [COTI-2]: 12.85
CN(C)C(=S)NN=C1CCCc2cccnc21 (mixture of isomers) [COTI-NMe2]: 13.02
CN(C(=S)N/N=C1\CCCc2cccnc21)C1CCCCC1 [COTI-NMeCy]: 12.94
NC(=S)N/N=C1\CCCc2cccnc21 [COTI-NH2]: 14.07

---

assay: Iron(II) complex formation, UV-vis spectrophotometric titrations (anaerobic); type: physicochemical; settings: –log[free Fe(II)] calculated at cFe = 1 μM, cL = 10 μM, pH = 7.40
Measurement label: pFe(II)

CN(C)C(=S)NN=C1CCCc2cccnc21 (mixture of isomers): 17.8
CN(C(=S)N/N=C1\CCCc2cccnc21)C1CCCCC1: 16.9
S=C(N/N=C1\CCCc2cccnc21)N1CCN(c2ccccn2)CC1: 19.3
NC(=S)N/N=C1\CCCc2cccnc21: 17.4

---

experiment: Zinc(II) complex formation, UV-vis spectrophotometric titrations; type: physicochemical; conditions: calculated at cM = 1 μM, cL = 10 μM, pH = 7.40
Measurement label: pZn

CN(C(=S)N/N=C1\CCCc2cccnc21)C1CCCCC1: 12.1
S=C(N/N=C1\CCCc2cccnc21)N1CCN(c2ccccn2)CC1: 11.9
NC(=S)N/N=C1\CCCc2cccnc21: 11.6
CN(C)C(=S)NN=C1CCCc2cccnc21 (mixture of isomers): 11.7

---

assay: Copper(II) complex formation, UV-vis titrations and EDTA competition; format: physicochemical; details: calculated at cM = 1 μM, cL = 10 μM, pH = 7.40
Measurement label: pCu

CN(C)C(=S)NN=C1CCCc2cccnc21 (mixture of isomers): 14.7
NC(=S)N/N=C1\CCCc2cccnc21: 13.1
S=C(N/N=C1\CCCc2cccnc21)N1CCN(c2ccccn2)CC1: 15.6
CN(C(=S)N/N=C1\CCCc2cccnc21)C1CCCCC1: 15.0

---

experiment: Parallel artificial membrane permeability assay (PAMPA); assay type: in vitro ADME; conditions: pH 7.4, 25 °C, read-out: Peff
Measurement label: Papp (×10⁻⁶ cm/s)

[1] NC(=S)N/N=C1\CCCc2cccnc21
[2] CN(C)C(=S)NN=C1CCCc2cccnc21 (mixture of isomers)
Select one: 1 or 2 . Criterion: greater recorded Papp. State the label of the item chosen. 2
(2: 16 ×10⁻⁶ cm/s, 1: 6.7 ×10⁻⁶ cm/s)
